The values you see were collected from patent US9796711B2.

target: ΔF508-CFTR (Homo sapiens, UniProt P13569, DEL508-508); construct: host or cells: CFBE41o-, doxycycline-inducible; assay: CFTR cell surface levels using HRP-tagged ΔF508-CFTR expressing CFBE cells, intrinsic corrector capacity; type: cell-based
Sequence (P13569 with tags, fused parts or gaps DEL508-508): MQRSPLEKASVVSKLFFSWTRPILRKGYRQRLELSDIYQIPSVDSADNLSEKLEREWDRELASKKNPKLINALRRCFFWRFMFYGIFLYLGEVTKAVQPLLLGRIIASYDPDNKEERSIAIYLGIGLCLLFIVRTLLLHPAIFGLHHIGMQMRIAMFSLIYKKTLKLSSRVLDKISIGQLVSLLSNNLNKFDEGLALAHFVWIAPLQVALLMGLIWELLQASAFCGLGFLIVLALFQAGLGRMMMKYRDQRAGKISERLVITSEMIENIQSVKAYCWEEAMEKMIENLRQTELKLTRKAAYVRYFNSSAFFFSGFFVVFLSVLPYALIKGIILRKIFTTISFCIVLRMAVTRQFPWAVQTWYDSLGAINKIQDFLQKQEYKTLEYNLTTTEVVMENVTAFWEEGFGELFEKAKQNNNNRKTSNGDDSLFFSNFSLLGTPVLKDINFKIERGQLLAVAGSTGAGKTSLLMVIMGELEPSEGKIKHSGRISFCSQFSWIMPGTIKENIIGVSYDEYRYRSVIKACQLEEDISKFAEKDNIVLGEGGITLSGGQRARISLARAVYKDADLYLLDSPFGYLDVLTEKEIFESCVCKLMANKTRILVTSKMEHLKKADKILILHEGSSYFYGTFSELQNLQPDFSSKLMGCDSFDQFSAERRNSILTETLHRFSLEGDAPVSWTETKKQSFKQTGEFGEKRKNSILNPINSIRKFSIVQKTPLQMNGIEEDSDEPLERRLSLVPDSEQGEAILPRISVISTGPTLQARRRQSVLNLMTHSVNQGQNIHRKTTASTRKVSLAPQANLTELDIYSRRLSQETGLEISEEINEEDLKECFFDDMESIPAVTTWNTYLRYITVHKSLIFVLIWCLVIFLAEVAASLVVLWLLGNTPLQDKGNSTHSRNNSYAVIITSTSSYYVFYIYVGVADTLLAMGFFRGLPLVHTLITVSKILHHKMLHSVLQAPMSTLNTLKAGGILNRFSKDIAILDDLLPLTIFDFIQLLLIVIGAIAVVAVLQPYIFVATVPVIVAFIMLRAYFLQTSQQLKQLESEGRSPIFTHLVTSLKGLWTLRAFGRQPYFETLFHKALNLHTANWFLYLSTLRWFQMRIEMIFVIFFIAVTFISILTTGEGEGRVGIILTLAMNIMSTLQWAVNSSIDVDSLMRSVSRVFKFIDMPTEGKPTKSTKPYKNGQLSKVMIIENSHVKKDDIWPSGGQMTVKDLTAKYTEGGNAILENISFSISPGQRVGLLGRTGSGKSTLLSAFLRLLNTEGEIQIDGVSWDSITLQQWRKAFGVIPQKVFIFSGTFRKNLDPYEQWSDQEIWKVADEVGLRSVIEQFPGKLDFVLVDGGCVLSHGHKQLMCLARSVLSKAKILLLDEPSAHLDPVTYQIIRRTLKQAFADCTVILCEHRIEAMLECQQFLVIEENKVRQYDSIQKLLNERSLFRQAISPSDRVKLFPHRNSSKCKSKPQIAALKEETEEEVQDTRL
pEC50: −log10 of the molar value.
Measured pEC50 accompanies every entry in the list below.

- chem smiles: "O=C(O)c1cc(N2CCC(N3CCOCC3)CC2)c2c(C3CCC3)nn(-c3ccccc3)c2n1"
  study target: "ΔF508-CFTR (Homo sapiens, UniProt P13569, DEL508-508)"
  pEC50: 6.41
- chem smiles: "O=C(O)c1cc(N2CCC[C@@H](CO)C2)c2c(C3CCC3)nn(-c3ccccc3)c2n1"
  study target: "ΔF508-CFTR (Homo sapiens, UniProt P13569, DEL508-508)"
  pEC50: 6.10
- chem smiles: "CC(C)(C)OC(=O)NC[C@H]1CCN(c2cc(C(=O)O)nc3c2c(C2CCC2)nn3-c2ccccc2)C1"
  study target: "ΔF508-CFTR (Homo sapiens, UniProt P13569, DEL508-508)"
  pEC50: 6.13
- chem smiles: "O=C(O)c1cc(N2CCC(N3CCCCC3)CC2)c2c(C3CCC3)nn(-c3ccccc3)c2n1"
  study target: "ΔF508-CFTR (Homo sapiens, UniProt P13569, DEL508-508)"
  pEC50: 6.30
